- SYSTEM UNDER TEST: HLA-A*02:01 (Homo sapiens, UniProt P04439, D140Y/D185E/D98H/E176V/E277Q/G131W/G231S/I119V/I121R/I166T/I218V/L300P/L318F/N151K/N90K/P208A/P217A/Q86G/Q94H/R138H/R169H/T345S)
- EXPERIMENTAL PROTOCOL: MHC binding assay: UV-ligand exchange with β2m ELISA
- TEST CONTEXT: binding to HLA-A*02:01
MEASURED QUANTITY: Peptide Exchange (MHC class I binding score, peptide exchange yield)

BIOSEQUENCE: SLAEPRVSV (listed as Homo sapiens) [SEQ ID NO: 27]
RESULT: “+++” (≥50 = +++)

BIOSEQUENCE: YIDGLESRV (listed as Homo sapiens) [SEQ ID NO: 22]
RESULT: “+++” (≥50 = +++)

* * *

- SYSTEM UNDER TEST: HLA-A*02:01 (Homo sapiens, UniProt P04439, D140Y/D185E/D98H/E176V/E277Q/G131W/G231S/I119V/I121R/I166T/I218V/L300P/L318F/N151K/N90K/P208A/P217A/Q86G/Q94H/R138H/R169H/T345S)
- EXPERIMENTAL PROTOCOL: MHC binding assay: UV-ligand exchange with β2m ELISA
- TEST CONTEXT: binding to HLA-A*02:01
MEASURED QUANTITY: Peptide Exchange (MHC class I binding score, peptide exchange yield)

BIOSEQUENCE: FMSKLVPAI (listed as Homo sapiens) [SEQ ID NO: 9]
RESULT: “+++” (≥50 = +++)
--
BIOSEQUENCE: SLFPSLVVV (listed as Homo sapiens) [SEQ ID NO: 15]
RESULT: “+++” (≥50 = +++)
